# Tested on: U2OS
# assay_explanation: drug sensitivity score (DSS) for viability; higher = more toxic; extreme values may be limits of the assay
# conditions_used: 72 h

[
  {
    "compound": "CN(C)[C@@H](CCOc1cccc2ccccc12)c1ccccc1",
    "tested_on": "U2OS",
    "drug sensitivity score": 0
  },
  {
    "compound": "CNc1ncc2cc(-c3cc(NC(=O)NCCC(C)(C)C)c(F)cc3C)c(C)nc2n1",
    "tested_on": "U2OS",
    "drug sensitivity score": 7.4
  },
  {
    "compound": "Cc1nn(C)c2c1C(c1ccc(C(F)(F)F)cc1)C(C#N)=C(N)O2 (centres undefined)",
    "tested_on": "U2OS",
    "drug sensitivity score": 0
  },
  {
    "compound": "NC[C@H]1O[C@H](O[C@H]2[C@H](O)[C@@H](O[C@H]3O[C@H](CO)[C@@H](O)[C@H](N)[C@H]3O)[C@H](N)C[C@@H]2N)[C@H](O)[C@@H](O)[C@@H]1O",
    "tested_on": "U2OS",
    "drug sensitivity score": 0
  }
]

Entry source: the supplement of paper PMC13380429
